Reference for the values: patent US20190218277A1

pKd values for the binders below.
Tgt: T1, Recombinant soluble E protein (0.8E-His) from DENV-2 (DENV-2, UniProt P14340 281-675)
T1 construct: also called DENV-2 E protein; DV2
The quantity pKd is defined as the negative base-10 logarithm of the molar concentration.

DG_3CH955-SG182/3CL499-SK1 (antibody, human IgG1, kappa, V domains shown) VH: QVQLVQSGPDVEKPGASVKVSCKASGYTFTSNYIHWVRQAPGQGLEWMGVINPRGGSRRSAQKFQGRITMTRDTSTSTVYMELSSLRSEDTAVYYCARGGRALFYDSYTTPRDLGSWWFDPWGQGSLVTVSS VL: DIQLTQSPSSLSASVGDRVTFTCQASQDIRKYLNWYQQKPGKAPKLLIYDASNLKFGVPSRFSGSGSGTDFTFTISSLQPEDVATYYCQQFDALPITFGQGTRLQIKR
8.99
DG_3CH953-SG182/3CL563-SK1 (antibody, human IgG1, kappa, V domains shown) VH: QVQLVQSGPDVEKPGASVKVSCKASGYTFTSNYIHWVRQAPGQGLEWMGVINPRGGSRRSAQKFQGRITMTRDTSTSTVYMELSSLRSEDTAVYYCARGGRALFYDSYTTPFDGGSWWFDPWGQGSLVTVSS VL: DIQLTQSPSSLSASVGDRVTFTCQASQDIRQYLNWYQQKPGKAPKLLIYDASNLKFGVPSRFSGSGSGTDFTFTISSLQPEDVATYYCQQFSALPITFGQGTRLQIKR
9.04

Incoming: Write down pKd measured for item DG_3CH1047-SG182/3CL658-SK1 (antibody, human IgG1, kappa, V domains shown, also called 3Cam) VH: QVQLVQSGPDVEKPGASVKVSCKASGYTFTSYYMHWVRQAPGQGLEWMGVINPRGGSRRSAQKFQGRITMTRDTSTSTVYMELSSLRSEDTAVYYCARGGEALFYDSYTTPFDGGSWWFDPWGQGSLVTVSS VL: DIQLTQSPSSLSASVGDRVTFTCQASQEIRKYLNWYQQKPGKAPKLLIYDASELKTGVPSRFSGSGSGTDFTFTISSLQPEDVATYYCQQFEDLPITFGQGTRLQIKR
Outgoing: 9.12
